- target-or-system: T1, Recombinant EBOV GP without transmembrane domain (Zaire ebolavirus, strain of GP not …, UniProt Q05320)
- T1 construct: also called recombinant GP; EBOV rGPdTM; source: bought: IBT Bioservices
- T1 sequence (Q05320 whole entry, looked up, the tested form may be a part): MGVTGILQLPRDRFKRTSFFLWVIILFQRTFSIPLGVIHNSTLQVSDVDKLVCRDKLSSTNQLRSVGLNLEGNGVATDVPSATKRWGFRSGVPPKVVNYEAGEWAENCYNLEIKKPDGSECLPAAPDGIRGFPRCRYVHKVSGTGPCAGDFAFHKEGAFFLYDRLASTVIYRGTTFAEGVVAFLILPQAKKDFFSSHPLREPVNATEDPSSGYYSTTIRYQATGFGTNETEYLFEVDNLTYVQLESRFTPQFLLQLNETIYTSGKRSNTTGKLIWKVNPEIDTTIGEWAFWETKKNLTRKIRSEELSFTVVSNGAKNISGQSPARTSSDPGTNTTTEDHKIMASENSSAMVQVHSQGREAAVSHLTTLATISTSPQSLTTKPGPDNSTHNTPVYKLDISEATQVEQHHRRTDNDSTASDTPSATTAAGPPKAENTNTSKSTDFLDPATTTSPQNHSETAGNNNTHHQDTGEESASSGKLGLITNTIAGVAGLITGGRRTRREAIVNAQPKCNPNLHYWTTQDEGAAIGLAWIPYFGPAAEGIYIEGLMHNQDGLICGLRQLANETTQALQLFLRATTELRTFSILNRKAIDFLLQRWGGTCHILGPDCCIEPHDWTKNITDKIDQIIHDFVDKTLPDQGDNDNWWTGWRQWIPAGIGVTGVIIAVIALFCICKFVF
- assay-comment: SPR
- protocol-conditions: both partners purified
koff values for the binders below.

// known answers, use as guide
EBOV-GP-A8-neg+ (VHH) VHH: EVQLVESGGGLVQAGDSLQLSCAAPGRPVRTYTMGWFRQAPGKEREFVCANNWRGTRYAGSVRGRFSCSRDNSKNTVYLQMNSLKPEDTAVYYCACAVTADLLLSGNYFRGDDYDYWGQGTQVTVSS; 5.8e-05 s⁻¹
EBOV-GP-H7-neg+ (VHH, also called EBOV-H7-neg+; Bt-sdAb-neg+) VHH: DVQLVESGGGLVQAGGSLRLSCAASSGTFSSYTMGWFRQAPGKERELVCRLSQSLTTLYADSVKGRFTCSRDNAENTVYLQMNSLKPEDTGVYYCAAHPGTYGSAWLISPHDYAYWGQGTQVTVSS; 0.0014 s⁻¹
EBOV-GP-A8-fneg+ (VHH, also called Bt-sdAb-neg+) VHH: EVQLVESGGGLVQAGDSLQLSCAAPGRPVRTYTMGWFRQAPGKEREFVCANNWRGTRYAGSVRGRFSCSRDNSKNTVYLQMNSLKPEDTAVYYCASAVTADLLLSGNYFRGDDYDYWGQGTQVTVSS; 9.1e-05 s⁻¹

# input koff lookup needed for EBOV-GP-G6-neg+ (VHH, also called Bt-sdAb-neg+) VHH: DVQLVESGGGLVQAGGSLRISCAASGGALSDYNMGWFRQAPGKEREFVCVVTWSGGSTRYADSVNGRFTCSRDNAKNTVYLQMNSLKPEDTAVYYCAAAPLTPFQSLGDMKAYNYWGQGTQVTVSS , thanks.
# output 0.00015 s⁻¹
